Measured pIC50 accompanies every entry in the list below.
Test system: MDA-MB-468
Assay: Cytotoxicity against human MDA-MB-468 cells assessed as cell growth inhibition measured after 2 days by cell counting kit-8 assay
Format: functional, cell-based
Conditions: MDA-MB-468, 48 h
By convention, pIC50 is the negative base-10 log of a molar concentration.

I have this molecule here, O=C(/C=C/c1cccs1)c1cccc(OCC2CS2)c1 (configuration not stated) , and I need its recorded pIC50.
5.16

====

Measured IC50 accompanies every entry in the list below.
Test system: MDA-MB-468
Test: Cytotoxicity against human MDA-MB-468 cells assessed as cell growth inhibition measured after 2 days by cell counting kit-8 assay
Type: functional, cell-based
Details: MDA-MB-468, 48 h
Give the quantity in µM, number only.

Known results for compounds:
O=C(/C=C/c1ccoc1)c1ccc(OCC2CO2)cc1 (stereo unspecified): 16.5
O=C(/C=C/c1ccsc1)c1ccc(OCC2CO2)cc1 (stereo unspecified): 10.8
O=C(/C=C/c1ccc(OCC2CO2)cc1)c1cccs1 (stereo unspecified): 6.3
O=C(/C=C/c1ccco1)c1ccc(OCC2CS2)cc1 (stereo unspecified): 4.32

I have this compound here, O=C(/C=C/c1ccc(OCC2CS2)cc1)c1cccs1 (stereo unspecified) , and I need its recorded IC50.
6.14

I have this compound here, O=C(/C=C/c1ccco1)c1cccc(OCC2CO2)c1 (stereo unspecified) , and I need its recorded IC50.
37.3
